Conditions: in dichloromethane, 299.85 K
OBSERVATION_TYPE: solubility (mole fraction)
Reply with the value as a number alone.

### Prompt Could you share which solubility (mole fraction) value was measured for O=C1Nc2ccccc2C1=O ?
### Response 0.00141

###

Conditions: in acetone, 298.45 K
OBSERVATION_TYPE: solubility (mole fraction)
Reply with the value as a number alone.

### Prompt Could you share which solubility (mole fraction) value was measured for O=C1Nc2ccccc2C1=O ?
### Response 0.014

###

Conditions: in DMF, 288.25 K
OBSERVATION_TYPE: solubility (mole fraction)
Reply with the value as a number alone.

### Prompt Could you share which solubility (mole fraction) value was measured for O=C1Nc2ccccc2C1=O ?
### Response 0.135

###

Conditions: in acetone, 292.75 K
OBSERVATION_TYPE: solubility (mole fraction)
Reply with the value as a number alone.

### Prompt Could you share which solubility (mole fraction) value was measured for O=C1Nc2ccccc2C1=O ?
### Response 0.0125

###

Conditions: in dichloromethane, 286.25 K
OBSERVATION_TYPE: solubility (mole fraction)
Reply with the value as a number alone.

### Prompt Could you share which solubility (mole fraction) value was measured for O=C1Nc2ccccc2C1=O ?
### Response 0.000982

###

Details: in toluene, 303.15 K
OBSERVATION_TYPE: solubility (mole fraction)

### Prompt Could you share which solubility (mole fraction) value was measured for O=C1Nc2ccccc2C1=O ?
### Response 0.000714

###

Settings: in dichloromethane, 303.25 K
OBSERVATION_TYPE: solubility (mole fraction)
Reply with the value as a number alone.

### Prompt Could you share which solubility (mole fraction) value was measured for O=C1Nc2ccccc2C1=O ?
### Response 0.00153

###

Details: in acetone, 287.25 K
OBSERVATION_TYPE: solubility (mole fraction)
Reply with the value as a number alone.

### Prompt Could you share which solubility (mole fraction) value was measured for O=C1Nc2ccccc2C1=O ?
### Response 0.0109

###

Details: in acetonitrile, 318.15 K
OBSERVATION_TYPE: solubility (mole fraction)

### Prompt Could you share which solubility (mole fraction) value was measured for O=C1Nc2ccccc2C1=O ?
### Response 0.0118

###

Conditions: in 1,4-dioxane, 308.15 K
OBSERVATION_TYPE: solubility (mole fraction)

### Prompt Could you share which solubility (mole fraction) value was measured for O=C1Nc2ccccc2C1=O ?
### Response 0.0252

###

Details: in THF, 301.15 K
OBSERVATION_TYPE: solubility (mole fraction)
Reply with the value as a number alone.

### Prompt Could you share which solubility (mole fraction) value was measured for O=C1Nc2ccccc2C1=O ?
### Response 0.0254

###

Conditions: in dichloromethane, 296.95 K
OBSERVATION_TYPE: solubility (mole fraction)
Reply with the value as a number alone.

### Prompt Could you share which solubility (mole fraction) value was measured for O=C1Nc2ccccc2C1=O ?
### Response 0.00132

###

Conditions: in 1,4-dioxane, 303.15 K
OBSERVATION_TYPE: solubility (mole fraction)
Reply with the value as a number alone.

### Prompt Could you share which solubility (mole fraction) value was measured for O=C1Nc2ccccc2C1=O ?
### Response 0.0218

###

Conditions: in dichloromethane, 278.15 K
OBSERVATION_TYPE: solubility (mole fraction)

### Prompt Could you share which solubility (mole fraction) value was measured for O=C1Nc2ccccc2C1=O ?
### Response 0.000788

###

Conditions: in ethyl acetate, 293.35 K
OBSERVATION_TYPE: solubility (mole fraction)
Reply with the value as a number alone.

### Prompt Could you share which solubility (mole fraction) value was measured for O=C1Nc2ccccc2C1=O ?
### Response 0.0048

###

Conditions: in THF, 297.15 K
OBSERVATION_TYPE: solubility (mole fraction)

### Prompt Could you share which solubility (mole fraction) value was measured for O=C1Nc2ccccc2C1=O ?
### Response 0.0234

###

Conditions: in THF, 314.05 K
OBSERVATION_TYPE: solubility (mole fraction)
Reply with the value as a number alone.

### Prompt Could you share which solubility (mole fraction) value was measured for O=C1Nc2ccccc2C1=O ?
### Response 0.0335

###

Conditions: in acetone, 302.65 K
OBSERVATION_TYPE: solubility (mole fraction)
Reply with the value as a number alone.

### Prompt Could you share which solubility (mole fraction) value was measured for O=C1Nc2ccccc2C1=O ?
### Response 0.0158

###

Settings: in dichloromethane, 293.15 K
OBSERVATION_TYPE: solubility (mole fraction)
Reply with the value as a number alone.

### Prompt Could you share which solubility (mole fraction) value was measured for O=C1Nc2ccccc2C1=O ?
### Response 0.0012

###

Conditions: in acetonitrile, 308.15 K
OBSERVATION_TYPE: solubility (mole fraction)
Reply with the value as a number alone.

### Prompt Could you share which solubility (mole fraction) value was measured for O=C1Nc2ccccc2C1=O ?
### Response 0.00893

###

Conditions: in DMF, 328.15 K
OBSERVATION_TYPE: solubility (mole fraction)
Reply with the value as a number alone.

### Prompt Could you share which solubility (mole fraction) value was measured for O=C1Nc2ccccc2C1=O ?
### Response 0.209

###

Settings: in toluene, 288.15 K
OBSERVATION_TYPE: solubility (mole fraction)

### Prompt Could you share which solubility (mole fraction) value was measured for O=C1Nc2ccccc2C1=O ?
### Response 0.000588

###

Settings: in ethyl acetate, 288.15 K
OBSERVATION_TYPE: solubility (mole fraction)

### Prompt Could you share which solubility (mole fraction) value was measured for O=C1Nc2ccccc2C1=O ?
### Response 0.00421

###

Conditions: in DMF, 323.15 K
OBSERVATION_TYPE: solubility (mole fraction)
Reply with the value as a number alone.

### Prompt Could you share which solubility (mole fraction) value was measured for O=C1Nc2ccccc2C1=O ?
### Response 0.198

###

Settings: in 1,4-dioxane, 318.15 K
OBSERVATION_TYPE: solubility (mole fraction)
Reply with the value as a number alone.

### Prompt Could you share which solubility (mole fraction) value was measured for O=C1Nc2ccccc2C1=O ?
### Response 0.0331

###

Details: in DMF, 303.15 K
OBSERVATION_TYPE: solubility (mole fraction)
Reply with the value as a number alone.

### Prompt Could you share which solubility (mole fraction) value was measured for O=C1Nc2ccccc2C1=O ?
### Response 0.16

###

Details: in DMF, 333.15 K
OBSERVATION_TYPE: solubility (mole fraction)
Reply with the value as a number alone.

### Prompt Could you share which solubility (mole fraction) value was measured for O=C1Nc2ccccc2C1=O ?
### Response 0.218

###

Conditions: in 1,4-dioxane, 323.15 K
OBSERVATION_TYPE: solubility (mole fraction)
Reply with the value as a number alone.

### Prompt Could you share which solubility (mole fraction) value was measured for O=C1Nc2ccccc2C1=O ?
### Response 0.0378

###

Settings: in dichloromethane, 307.65 K
OBSERVATION_TYPE: solubility (mole fraction)

### Prompt Could you share which solubility (mole fraction) value was measured for O=C1Nc2ccccc2C1=O ?
### Response 0.0017

###

Conditions: in 1,4-dioxane, 328.15 K
OBSERVATION_TYPE: solubility (mole fraction)
Reply with the value as a number alone.

### Prompt Could you share which solubility (mole fraction) value was measured for O=C1Nc2ccccc2C1=O ?
### Response 0.0428

###

Conditions: in DMF, 283.15 K
OBSERVATION_TYPE: solubility (mole fraction)

### Prompt Could you share which solubility (mole fraction) value was measured for O=C1Nc2ccccc2C1=O ?
### Response 0.127

###

Settings: in dichloromethane, 282.35 K
OBSERVATION_TYPE: solubility (mole fraction)
Reply with the value as a number alone.

### Prompt Could you share which solubility (mole fraction) value was measured for O=C1Nc2ccccc2C1=O ?
### Response 0.000876

###

Conditions: in 1,4-dioxane, 333.15 K
OBSERVATION_TYPE: solubility (mole fraction)
Reply with the value as a number alone.

### Prompt Could you share which solubility (mole fraction) value was measured for O=C1Nc2ccccc2C1=O ?
### Response 0.0484

###

Settings: in acetonitrile, 288.35 K
OBSERVATION_TYPE: solubility (mole fraction)
Reply with the value as a number alone.

### Prompt Could you share which solubility (mole fraction) value was measured for O=C1Nc2ccccc2C1=O ?
### Response 0.00498

###

Settings: in 1,4-dioxane, 313.15 K
OBSERVATION_TYPE: solubility (mole fraction)
Reply with the value as a number alone.

### Prompt Could you share which solubility (mole fraction) value was measured for O=C1Nc2ccccc2C1=O ?
### Response 0.029

###

Conditions: in DMF, 318.45 K
OBSERVATION_TYPE: solubility (mole fraction)
Reply with the value as a number alone.

### Prompt Could you share which solubility (mole fraction) value was measured for O=C1Nc2ccccc2C1=O ?
### Response 0.19

###

Conditions: in toluene, 318.15 K
OBSERVATION_TYPE: solubility (mole fraction)
Reply with the value as a number alone.

### Prompt Could you share which solubility (mole fraction) value was measured for O=C1Nc2ccccc2C1=O ?
### Response 0.000884
